Please provide measured log10 of Kb for the entries that follow.
system-under-test: isolated vas deferens of a rat (Rattus norvegicus)
Construct: The vas deferens was isolated from SD male rats and cut into strips about 20 mm long; from tissue; host or cells: vas deferens of SD male rats
Sequence (P43140 whole entry): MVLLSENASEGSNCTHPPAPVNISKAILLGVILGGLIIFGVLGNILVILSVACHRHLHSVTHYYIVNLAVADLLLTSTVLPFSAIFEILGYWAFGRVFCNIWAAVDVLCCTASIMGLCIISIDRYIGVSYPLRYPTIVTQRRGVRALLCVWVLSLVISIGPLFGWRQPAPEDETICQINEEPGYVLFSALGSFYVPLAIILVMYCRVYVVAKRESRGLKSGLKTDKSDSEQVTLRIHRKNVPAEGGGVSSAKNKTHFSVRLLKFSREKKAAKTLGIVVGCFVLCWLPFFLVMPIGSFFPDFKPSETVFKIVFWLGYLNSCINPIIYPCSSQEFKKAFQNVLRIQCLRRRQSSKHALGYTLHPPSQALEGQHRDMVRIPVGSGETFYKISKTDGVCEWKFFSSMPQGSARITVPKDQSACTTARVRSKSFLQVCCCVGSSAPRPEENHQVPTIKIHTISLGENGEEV
protocol-summary: Action on isolated vas deferens of a rat (antagonism against noradrenaline)
Design: species or system SD male rat
run-parameters: 3 minutes pretreatment, 32° C., read-out: pA2 (converted)
Friendly reminder: values = log10 of Kb, unit nM.

Short answer please: log10 of Kb, isolated vas deferens of a rat (Rattus norvegicus), entry CCOc1ccccc1N1CCN(CCn2cnc3ccccc3c2=O)CC1
-0.30

Form field: log10 of Kb recorded for CCOc1ccccc1N1CCN(CCn2c(C)nc3nc(C)cc(C)c3c2=O)CC1 with isolated vas deferens of a rat (Rattus norvegicus) (enter value)
0.80

Test system isolated vas deferens of a rat (Rattus norvegicus); read-out log10 of Kb; what value for CCOc1ccccc1N1CCN(CCn2c(C)nc3ccccc3c2=O)CC1 ?
0.50

log10 of Kb of CCOc1ccccc1N1CCN(CCCn2c(C)nc3ccccc3c2=O)CC1 on isolated vas deferens of a rat (Rattus norvegicus)?
1.00

API: value(readout=log10 of Kb, system=isolated vas deferens of a rat (Rattus norvegicus)) for record CCOc1ccccc1N1CCN(CCCCn2c(=O)n(-c3ccccc3)c(=O)c3c(C)cc(C)nc32)CC1
0.90

Query log10 of Kb on isolated vas deferens of a rat (Rattus norvegicus) for CCOc1ccccc1N1CCN(CCCn2c(C)nc3nc(C)cc(C)c3c2=O)CC1
0.40

Query log10 of Kb on isolated vas deferens of a rat (Rattus norvegicus) for CCOc1ccccc1N1CCN(CCCCn2c(C)nc3nc(C)cc(C)c3c2=O)CC1
0.70

Param readout= log10 of Kb; system= isolated vas deferens of a rat (Rattus norvegicus); entry= CCOc1ccccc1N1CCN(CCCCn2cnc3ccccc3c2=O)CC1 ; returns value.
-0.40

Data origin: patent US4841051A
